Where do these numbers come from? They come from ChEMBL document CHEMBL1914295.

- Tested on: Staphylococcus aureus
- method: Antibacterial activity against Staphylococcus aureus at 100 ug/ml after 24 hrs by disc diffusion method
- Format: functional
- condition-summary: read-out: IZ
Could you label it 1.0 if measured zone of inhibition at 100 µg/mL is 20 mm or higher, and 0.0 otherwise?

compound	label
CC1Sc2sccc2-c2nc(-n3cnn(C(C)C)c3=O)sc21 (centres undefined)	0.0

I'd appreciate it if you could say whether O=c1[nH]ncn1-c1nc(-c2ccsc2)cs1 has zone of inhibition at 100 µg/mL at least equal to 20 mm.
1.0

I'd appreciate it if you could say whether CC1Sc2sccc2-c2nc(-n3cnn(CC#N)c3=O)sc21 (centres undefined) has zone of inhibition at 100 µg/mL at least equal to 20 mm.
0.0

I'd appreciate it if you could say whether CC1Sc2sccc2-c2nc(-n3cn[nH]c3=O)sc21 (centres undefined) has zone of inhibition at 100 µg/mL at least equal to 20 mm.
0.0

I'd appreciate it if you could say whether CC(C)n1ncn(-c2nc(-c3ccsc3)cs2)c1=O has zone of inhibition at 100 µg/mL at least equal to 20 mm.
1.0

I'd appreciate it if you could say whether CC1Sc2sccc2-c2nc(-n3cnn(C)c3=O)sc21 (centres undefined) has zone of inhibition at 100 µg/mL at least equal to 20 mm.
0.0
